Kindly state Plateau Ratio for each of the entries shown.
- test-target: T1, LINGO-Fc (human, UniProt Q96FE5 40-538, limits assumed)
- T1 construct: not shown: Fc part
- T1 sequence: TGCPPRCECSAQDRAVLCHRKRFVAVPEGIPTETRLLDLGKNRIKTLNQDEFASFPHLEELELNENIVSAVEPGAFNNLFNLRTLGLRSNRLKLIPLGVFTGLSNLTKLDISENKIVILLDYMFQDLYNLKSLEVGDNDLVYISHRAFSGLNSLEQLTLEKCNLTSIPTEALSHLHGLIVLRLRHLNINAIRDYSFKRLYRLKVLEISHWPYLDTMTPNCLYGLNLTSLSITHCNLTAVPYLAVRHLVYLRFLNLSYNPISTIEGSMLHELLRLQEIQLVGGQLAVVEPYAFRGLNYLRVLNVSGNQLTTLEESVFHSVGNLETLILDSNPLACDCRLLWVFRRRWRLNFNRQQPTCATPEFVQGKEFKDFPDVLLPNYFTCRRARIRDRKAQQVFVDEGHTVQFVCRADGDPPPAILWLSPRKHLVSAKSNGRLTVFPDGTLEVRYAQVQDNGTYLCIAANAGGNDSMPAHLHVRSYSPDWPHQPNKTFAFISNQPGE
- test: direct ELISA on LINGO-Fc; OD450 at saturation relative to Li33;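 further: binding to plate-coated LINGO-Fc read by OD450, with the value at maximal saturation divided by the corresponding Li33 value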
Respond with the bare value in ratio.

Sure, the documented Plateau Ratio for Li33 variant W94G (SEQ ID NO:169) (antibody, V domains shown, unchanged chain from WT Li33) VH: EVQLLESGGGLVQPGGSLRLSCAASGFTFSIYPMFWVRQAPGKGLEWVSWIGPSGGITKYADSVKGRFTISRDNSKNTLYLQMNSLRAEDTATYYCAREGHNDWYFDLWGRGTLVTVSS VL: DIQMTQSPGTLSLSPGERATLSCRASQSVSSYLAWYQQKPGQAPRLLIYDASNRATGIPARFSGSGSGTEFTLTISSLQSEDFAVYYCQQYDKGPLTFGGGTKVEIKR is 1.03

Query Li33 variant W50H (SEQ ID NO:147) (antibody, V domains shown, unchanged chain from WT Li33) VH: EVQLLESGGGLVQPGGSLRLSCAASGFTFSIYPMFWVRQAPGKGLEWVSHIGPSGGITKYADSVKGRFTISRDNSKNTLYLQMNSLRAEDTATYYCAREGHNDWYFDLWGRGTLVTVSS VL: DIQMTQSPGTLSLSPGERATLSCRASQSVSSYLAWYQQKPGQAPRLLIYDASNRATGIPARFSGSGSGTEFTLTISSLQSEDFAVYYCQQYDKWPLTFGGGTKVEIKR yields Plateau Ratio of 0.87

Summary for this binder, Li33 variant P53S (SEQ ID NO:152) (antibody, V domains shown, unchanged chain from WT Li33) VH: EVQLLESGGGLVQPGGSLRLSCAASGFTFSIYPMFWVRQAPGKGLEWVSWIGSSGGITKYADSVKGRFTISRDNSKNTLYLQMNSLRAEDTATYYCAREGHNDWYFDLWGRGTLVTVSS VL: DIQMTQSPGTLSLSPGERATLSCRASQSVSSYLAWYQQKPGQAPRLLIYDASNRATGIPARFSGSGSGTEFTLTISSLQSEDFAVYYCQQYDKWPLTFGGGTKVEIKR : Plateau Ratio is 1.43

Documented Plateau Ratio of Li33 variant W104M (SEQ ID NO:176) (antibody, V domains shown, unchanged chain from WT Li33) VH: EVQLLESGGGLVQPGGSLRLSCAASGFTFSIYPMFWVRQAPGKGLEWVSWIGPSGGITKYADSVKGRFTISRDNSKNTLYLQMNSLRAEDTATYYCAREGHNDMYFDLWGRGTLVTVSS VL: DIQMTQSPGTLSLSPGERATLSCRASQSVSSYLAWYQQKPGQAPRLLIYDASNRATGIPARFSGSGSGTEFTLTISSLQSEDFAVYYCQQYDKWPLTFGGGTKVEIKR : 0.88

For this binder ( Li33 variant W104T (SEQ ID NO:178) (antibody, V domains shown, unchanged chain from WT Li33) VH: EVQLLESGGGLVQPGGSLRLSCAASGFTFSIYPMFWVRQAPGKGLEWVSWIGPSGGITKYADSVKGRFTISRDNSKNTLYLQMNSLRAEDTATYYCAREGHNDTYFDLWGRGTLVTVSS VL: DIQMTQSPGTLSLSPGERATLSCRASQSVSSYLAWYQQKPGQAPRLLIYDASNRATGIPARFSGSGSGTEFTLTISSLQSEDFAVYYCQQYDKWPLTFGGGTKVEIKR ), measured Plateau Ratio is 0.33
